Assay: Toxicity liver stage against HepG2, at 10uM
Format: cell-based
Design: test concentration 10 uM, cell line HepG2-A16-CD81EGFP
Details: human, HepG2-A16-CD81EGFP cells; read-out: INHIBITION
Endpoint: cytotoxicity at 10 µM (%)

[
  {
    "Molecule": "Cn1cc(C2CCCN2C(=O)CCCOCc2ccccc2)cn1 (stereo not drawn)",
    "Endpoint": "cytotoxicity at 10 µM",
    "Obs value": -10.2
  },
  {
    "Molecule": "Cn1cc(-c2cc(-c3cnn(C)c3)n(CC(=O)NC3CC3)n2)cn1",
    "Endpoint": "cytotoxicity at 10 µM",
    "Obs value": 2.94
  },
  {
    "Molecule": "Cc1ccncc1NC(=O)C1CSc2ncc(C)c(=O)n2C1 (stereo not drawn)",
    "Endpoint": "cytotoxicity at 10 µM",
    "Obs value": -6.53
  },
  {
    "Molecule": "CCc1cnc(N2C[C@@H](NC(=O)c3cscn3)[C@H]3COC[C@H]32)nc1",
    "Endpoint": "cytotoxicity at 10 µM",
    "Obs value": -127
  },
  {
    "Molecule": "OC(CN1CCOCC1)CN1CCc2c(ncn2C2CC2)C1 (stereo not drawn)",
    "Endpoint": "cytotoxicity at 10 µM",
    "Obs value": 2.45
  },
  {
    "Molecule": "Cn1cc(CN2CCc3ncnc(C4CCOC4)c3CC2)cn1 (stereo not drawn)",
    "Endpoint": "cytotoxicity at 10 µM",
    "Obs value": -7.46
  },
  {
    "Molecule": "CC(c1nc(C(C)(C)C)no1)N1CCN(Cc2ccc(C#N)cc2)CC1 (stereo not drawn)",
    "Endpoint": "cytotoxicity at 10 µM",
    "Obs value": -5.38
  },
  {
    "Molecule": "Cc1nc(Cn2c3c(ccc2=O)CC(NC(C)C)CC3)cs1 (stereo not drawn)",
    "Endpoint": "cytotoxicity at 10 µM",
    "Obs value": 6.39
  },
  {
    "Molecule": "CCN(C)S(=O)(=O)N(CC)Cc1cccc(-c2ccncc2)c1",
    "Endpoint": "cytotoxicity at 10 µM",
    "Obs value": -11.5
  },
  {
    "Molecule": "COCCOc1ncccc1CNC(=O)N1CCCCCC1",
    "Endpoint": "cytotoxicity at 10 µM",
    "Obs value": -36
  },
  {
    "Molecule": "Cc1ccc2c(c1)OCCCC2NCc1nccn1Cc1ccccc1 (stereo not drawn)",
    "Endpoint": "cytotoxicity at 10 µM",
    "Obs value": -9.4
  },
  {
    "Molecule": "COc1cccnc1-c1ccc(F)c2c1OC(CN)C2 (stereo not drawn)",
    "Endpoint": "cytotoxicity at 10 µM",
    "Obs value": 1.74
  },
  {
    "Molecule": "Cc1cc(C)c(CNC(=O)N(C)Cc2ccc3c(c2)OCO3)c(=O)[nH]1",
    "Endpoint": "cytotoxicity at 10 µM",
    "Obs value": -5.53
  },
  {
    "Molecule": "CCC1=NOC(CNCc2cnc(-c3ccccc3C)s2)C1 (stereo not drawn)",
    "Endpoint": "cytotoxicity at 10 µM",
    "Obs value": -5.92
  },
  {
    "Molecule": "CC(Cn1cccn1)n1cnc2cccc(Cl)c2c1=O (stereo not drawn)",
    "Endpoint": "cytotoxicity at 10 µM",
    "Obs value": -5.41
  },
  {
    "Molecule": "C[C@@H]1CN(CC(C)(C)N2CCCCC2)C[C@@]1(O)C1CC1",
    "Endpoint": "cytotoxicity at 10 µM",
    "Obs value": -0.519
  },
  {
    "Molecule": "O=C(NCc1cccs1)[C@H]1CO[C@H]2CCN(C3CCCC3)C[C@H]2C1",
    "Endpoint": "cytotoxicity at 10 µM",
    "Obs value": -110
  },
  {
    "Molecule": "CCc1n[nH]c(C2CN(C(=O)c3cc4c(s3)CCC4)CCO2)n1 (stereo not drawn)",
    "Endpoint": "cytotoxicity at 10 µM",
    "Obs value": -4.98
  },
  {
    "Molecule": "CC(NC(=O)NCCn1ccnc1)c1ccc2c(c1)NC(=O)CO2 (stereo not drawn)",
    "Endpoint": "cytotoxicity at 10 µM",
    "Obs value": -7.36
  },
  {
    "Molecule": "CS(=O)(=O)N1CCOC(CNC(=O)c2cccc(C#N)c2)C1 (stereo not drawn)",
    "Endpoint": "cytotoxicity at 10 µM",
    "Obs value": -5.69
  },
  {
    "Molecule": "COc1ccc(N(Cc2ccco2)C(=O)COC(C)C)cc1F",
    "Endpoint": "cytotoxicity at 10 µM",
    "Obs value": -1.63
  },
  {
    "Molecule": "CN(Cc1ccncc1)CC(c1cccs1)N1CCOCC1 (stereo not drawn)",
    "Endpoint": "cytotoxicity at 10 µM",
    "Obs value": -15.7
  },
  {
    "Molecule": "N#Cc1c(SCCN2CCCCC2)sc2c(O)cc(O)nc12",
    "Endpoint": "cytotoxicity at 10 µM",
    "Obs value": -13.1
  },
  {
    "Molecule": "COCCCNc1nc(CNC(C)=O)cc(-c2ccco2)n1",
    "Endpoint": "cytotoxicity at 10 µM",
    "Obs value": -5.52
  },
  {
    "Molecule": "CCn1c(N)nc2cc(C(=O)NCCNc3ncccc3C)cnc21",
    "Endpoint": "cytotoxicity at 10 µM",
    "Obs value": -5.98
  },
  {
    "Molecule": "COc1cccc(C(=O)NS(=O)(=O)c2cncc(Br)c2)c1OC",
    "Endpoint": "cytotoxicity at 10 µM",
    "Obs value": 0.684
  },
  {
    "Molecule": "O=C(NCc1cccs1)C1CCCN(c2cc(-n3cncn3)ncn2)C1 (stereo not drawn)",
    "Endpoint": "cytotoxicity at 10 µM",
    "Obs value": 0.827
  },
  {
    "Molecule": "CC(C)C(C(=O)N1CCN(Cc2ccccn2)CC1)n1cncn1 (stereo not drawn)",
    "Endpoint": "cytotoxicity at 10 µM",
    "Obs value": -14.5
  },
  {
    "Molecule": "O=C([C@H]1CCCO1)N1CCC2(CC1)C(=O)N(CC1CC1)c1ccccc12",
    "Endpoint": "cytotoxicity at 10 µM",
    "Obs value": 8.5
  },
  {
    "Molecule": "Cc1nnsc1CN(C)Cc1ccc(C(=O)Nc2sccc2C#N)cc1",
    "Endpoint": "cytotoxicity at 10 µM",
    "Obs value": 4.06
  },
  {
    "Molecule": "CCOc1cccc(COC(=O)c2ccc(F)cn2)n1",
    "Endpoint": "cytotoxicity at 10 µM",
    "Obs value": 0.296
  },
  {
    "Molecule": "Cc1nc(CN2CC3(CCN(c4cnccn4)C3)CC2=O)cs1 (stereo not drawn)",
    "Endpoint": "cytotoxicity at 10 µM",
    "Obs value": 1.36
  },
  {
    "Molecule": "CC1CCC(NC(=O)NCC(C)(C)CCS(C)(=O)=O)CC1 (stereo not drawn)",
    "Endpoint": "cytotoxicity at 10 µM",
    "Obs value": 9.61
  },
  {
    "Molecule": "CN1CCCC(CCCc2cccnc2)(C(N)=O)C1 (stereo not drawn)",
    "Endpoint": "cytotoxicity at 10 µM",
    "Obs value": -7.86
  },
  {
    "Molecule": "c1ccc(CN2CCN(c3ccc4nncn4n3)CC2)nc1",
    "Endpoint": "cytotoxicity at 10 µM",
    "Obs value": -1.1
  },
  {
    "Molecule": "Cc1ccc(C)c(S(=O)(=O)NCCC(=O)NCc2ccoc2)c1",
    "Endpoint": "cytotoxicity at 10 µM",
    "Obs value": -11.5
  },
  {
    "Molecule": "CCN1CCc2[nH]cnc2C12CCN(C(=O)CCCn1cncn1)CC2",
    "Endpoint": "cytotoxicity at 10 µM",
    "Obs value": -19.2
  },
  {
    "Molecule": "CCC(CC)C(=O)N(C)CC(=O)Nc1ccc(Br)cn1",
    "Endpoint": "cytotoxicity at 10 µM",
    "Obs value": -11.2
  },
  {
    "Molecule": "O=C(NCCn1ccnc1)c1ccn(-c2cccc(F)c2)n1",
    "Endpoint": "cytotoxicity at 10 µM",
    "Obs value": -5.28
  },
  {
    "Molecule": "Cc1ccc(CN2CCc3[nH]nc(C(=O)N(C)C)c3C2)s1",
    "Endpoint": "cytotoxicity at 10 µM",
    "Obs value": -7.55
  },
  {
    "Molecule": "Cc1c(C(C)NC2CCOCC2)cnn1-c1ccc(F)cc1F (stereo not drawn)",
    "Endpoint": "cytotoxicity at 10 µM",
    "Obs value": -8.87
  },
  {
    "Molecule": "Cc1cnn(CC(C)NCC(=O)NCCc2cccs2)c1 (stereo not drawn)",
    "Endpoint": "cytotoxicity at 10 µM",
    "Obs value": 6.41
  },
  {
    "Molecule": "COCCN1CCC2(CCC1=O)CN(c1ccnc(SC)n1)CCN2C (stereo not drawn)",
    "Endpoint": "cytotoxicity at 10 µM",
    "Obs value": 2.41
  },
  {
    "Molecule": "O=C(c1ccc(Cl)cc1)N1CCC(N2CCCOC2=O)CC1",
    "Endpoint": "cytotoxicity at 10 µM",
    "Obs value": 11.1
  },
  {
    "Molecule": "CC(C)Oc1ncnc2c1CCN(Cc1ccco1)CC2",
    "Endpoint": "cytotoxicity at 10 µM",
    "Obs value": 8.49
  },
  {
    "Molecule": "Cc1cnc(CN(C)C2CCN(Cc3nnc(C4CC4)o3)C2)o1 (stereo not drawn)",
    "Endpoint": "cytotoxicity at 10 µM",
    "Obs value": 5.25
  },
  {
    "Molecule": "Cc1noc(CCCc2nc(C3CCOC3)no2)n1 (stereo not drawn)",
    "Endpoint": "cytotoxicity at 10 µM",
    "Obs value": 3.5
  },
  {
    "Molecule": "CCN(CC)C(=O)Cn1ccc2cc(NC(=O)COC)ccc21",
    "Endpoint": "cytotoxicity at 10 µM",
    "Obs value": -7.89
  }
]
